Test system: HL-60(TB) leukemia
run-description: NCI tumour cell line growth inhibition, 48 h
measured-parameter: TGI

Query: Query (compound): Cc1nc2ccncc2[nH]1 ; field requested: TGI
Reply: > 100 µM

Query: Query (compound): CN(C)CCNC(=O)Nc1ccc(N(C)c2ccnc(Nc3ccc(CS(C)(=O)=O)cc3)n2)cc1 ; field requested: TGI
Reply: > 25 µM

Query: Query (compound): CCOC(=O)c1cc(C(=O)c2ccc(OC)c(OC)c2)n2c1ccc1ccc3cccnc3c12 ; field requested: TGI
Reply: > 100 µM

Query: Query (compound): CCc1c(O)nc(Nc2nc3ccccc3[nH]2)[nH]c1=O ; field requested: TGI
Reply: > 100 µM

Query: Query (compound): CCOC(=O)N1CCNCCN(C(=O)OCC)CCNCC1 ; field requested: TGI
Reply: > 100 µM

Query: Query (compound): OCC1OC(OC2(CO)OC(CO)C(O)C2O)C(O)C(O)C1O (stereo unspecified) ; field requested: TGI
Reply: > 100 µM

* * *

System: OVCAR-4 ovarian
run-description: NCI tumour cell line growth inhibition, 48 h
# reported TGI; entries follow

Please review the following examples before continuing.
COc1ccc(O[C@H](CO)C[C@@H]2COC(C)(C)O2)cc1 | > 100 µM
COc1ccc(S(=O)(=O)NC(CCC(=O)NC(N)=O)C(=O)NC(N)=O)cc1 (centres undefined) | > 100 µM

Query: Query (compound): COc1cc2c(cc1OC)C1=C(C=O)c3ccc(OC)c(OC)c3C(O)N1CC2 (centres undefined) ; field requested: TGI
Reply: > 100 µM

Query: Query (compound): CC(C)(NO)/C(=N\O)c1ccccc1 ; field requested: TGI
Reply: > 10 µM

* * *

Tested on: OVCAR-5 ovarian
run-description: NCI tumour cell line growth inhibition, 48 h
# reported TGI; entries follow

Please review the following examples before continuing.
OCCN1CCN(c2nc(N3CCCC3)c3nc(Cl)c(NCc4ccccc4)nc3n2)CC1 | 26.6 µM
C#Cc1cccc(NC(=O)/C=C\C(=O)O)c1 | > 100 µM
Cc1nnc(SCc2nc(C#N)c(C#N)nc2CSc2nnc(C)s2)s1 | 34.5 µM
NC1=NC(c2ccccc2Cl)c2c(n[nH]c2N)N1 (stereo unspecified) | > 100 µM
Cc1cc(OC2OC(CO)C(O)C(O)C2O)ccc1O (stereo unspecified) | > 100 µM

Query: Lab note: need TGI for CCOC(=O)c1cn(C)c2c(OC)c3ccccc3c(OC)c2c1=O on OVCAR-5 ovarian, anyone have it?
Reply: > 100 µM

Query: Lab note: need TGI for COC(=O)Nc1cc(OCCCOC(C)=O)c2[nH]c(C(=O)OC)cc2c1C[C@H](O)CO on OVCAR-5 ovarian, anyone have it?
Reply: > 100 µM

* * *

System: CAKI-1 renal
run-description: NCI tumour cell line growth inhibition, 48 h
measured-parameter: GI50

Please review the following examples before continuing.
CN(C)CCNC(=O)Nc1ccc(N(C)c2ccnc(Nc3ccc(CS(C)(=O)=O)cc3)n2)cc1 | > 25 µM
N#Cc1cc(F)cc(Oc2ccc(S(=O)(=O)C(F)F)c3c2CC(F)(F)[C@H]3O)c1 | 27.7 µM
NCCCNc1nc2ccccc2c2c(=O)c3cc(Cl)ccc3sc12 | 1.49 µM
CCN(CC)CCCC(Nc1c2ccc(Cl)cc2nc2ccc(OC)cc12)c1ccc(Cl)cc1 (stereo unspecified) | 1.17 µM
N#CN1CC[C@H](C(=O)Nc2ncc(-c3ccccc3)s2)C1 | 1.65 µM

Query: Lab note: need GI50 for O=C(Nc1nc2ccc(S(=O)(=O)Nc3ccc(C4(C(F)(F)F)CC4)cc3)cc2[nH]1)c1cnccn1 on CAKI-1 renal, anyone have it?
Reply: 4.19 µM

Query: Lab note: need GI50 for CC(=O)Nc1cccc(C#Cc2cncnc2Nc2ccc(OCc3cccc(F)c3)c(Cl)c2)c1 on CAKI-1 renal, anyone have it?
Reply: 3.3 µM

Query: Lab note: need GI50 for Cn1cc(-c2ccc3ncc(-c4ccc(CC(=O)Nc5cc(C(C)(C)C)nn5C)cc4)cc3c2)cn1 on CAKI-1 renal, anyone have it?
Reply: 0.541 µM
